# credit: ChEMBL document CHEMBL1122702

Species: Rattus norvegicus
Assay: Ratio of distribution of the [131I]-labeled compound at 30 min in rat heart over uptake in blood
Format: ADME, organism-based
Details: other tissue, 0.5 h
Could you label it Satisfied if measured Ratio is 2 or higher, and Not satisfied otherwise?

• COc1cc(CC(C)NO)c(OC)cc1I (configuration not stated) = Not satisfied
• COc1cc(CC(C)N(C)C)c(OC)cc1I (configuration not stated) = Satisfied
• CCN(CC)C(C)Cc1cc(OC)c(I)cc1OC (configuration not stated) = Satisfied

Shift focus to the following entry.
Inquiry: Answer whether Ratio of COc1cc(CC(C)N(C)C(C)C)c(OC)cc1I (configuration not stated) is greater than or equal to 2.
Reply text: Not satisfied

---

Organism: Rattus norvegicus
Test: The distribution of the 131 I-labeled compound at 30 min was evaluated in rat brain as Percent of injected dose per gram in the organ
Format: ADME, organism-based
Conditions: in vivo, 0.5 h
Reported Dose values follow for various compounds

• COc1cc(CC(C)NCC#N)c(OC)cc1I (stereo unspecified) = 0.31%
• COc1cc(CC(C)NCC2CC2)c(OC)cc1I (stereo unspecified) = 0.19%
• COc1cc(CC(C)NCc2ccccc2)c(OC)cc1I (stereo unspecified) = 0.5%
• COc1cc(CC(C)N(C)C(C)C)c(OC)cc1I (stereo unspecified) = 0.05%
• COc1cc(CC(C)NCCCN(C)C)c(OC)cc1I (stereo unspecified) = 0.02%

--- query ---
Inquiry: Look up Dose for this compound: CCCCCCNC(C)Cc1cc(OC)c(I)cc1OC (stereo unspecified)
Reply text: 0.57%

---

Species: Rattus norvegicus
Assay: Ratio of distribution of the [131I]-labeled compound at 30 min in rat brain over uptake in blood
Format: ADME, organism-based
Conditions: 0.5 h
ASSAY ENDPOINT: Ratio
Lab note: jot down the number only; don't add units.

Answered examples (2):
* COc1cc(CC(C)NC(C)C)c(OC)cc1I (stereo not drawn) | 1.3
* COc1cc(CC(C)NN)c(OC)cc1I (stereo not drawn) | 0.5

Could you now consider this next compound?
Inquiry: Item CCCCCCCCCCCCNC(C)Cc1cc(OC)c(I)cc1OC (stereo not drawn) has what recorded Ratio?
Reply text: 0.14

---

Species on record: Rattus norvegicus
Assay: Ratio of distribution of the [131I]-labeled compound at 30 min in rat heart over uptake in blood
Assay type: ADME, organism-based
Details: other tissue, 0.5 h
ASSAY ENDPOINT: Ratio
// print number alone

• COc1cc(CC(C)NCCCN(C)C)c(OC)cc1I (stereo not drawn) = 21

Inquiry: Item CNC(C)Cc1cc(OC)c(I)cc1OC (stereo not drawn) has what recorded Ratio?
Reply text: 1.9

Inquiry: Also check COc1cc(CC(C)NC(C)C)c(OC)cc1I (stereo not drawn)
Reply text: 1.9
